System: WEEV California
protocol text: microbe, parasite or virus in culture
Assay type: cell-based
condition notes: Western equine encephalitis virus, Vero 76, 48 h, read-out: WEEV California EC50 nM
recorded endpoint: EC50

Example compounds with recorded EC50:
> print(dat)
                                   compound      test.system  measured.value
1  COc1ccc(-n2c([C@H]3CCCN3)nc3ccc(C#N)c(F)c3c2=O)cc1  WEEV California       > 1000 nM
2  COc1ccc(-n2c(-c3cn(C)cn3)nc3c(-c4ccc(C)nc4)cc(C#N)cc3c2=O)cc1F  WEEV California       > 1000 nM
3  COc1c(F)cc(-n2c(C3CCNC3)nc3c(-c4ccc(C)nc4)cc(C#N)cc3c2=O)cc1F (stereo not shown)  WEEV California      1 to 50 nM

Below: the item to evaluate.
Need EC50, item COc1ccc(-c2cc(C#N)cc3c(=O)n(-c4ccc(OC)c(F)c4)c(C4CCCN4)nc23)cc1 (stereo not shown)
1 to 50 nM

---

Test system: VEEV TC83
protocol text: microbe, parasite or virus in culture
Assay type: cell-based
condition notes: Venezuelan equine encephalitis virus, Vero 76, 48 h, read-out: VEEV TC83 EC50 nM
recorded endpoint: EC50

> print(dat)
                                   compound  test.system  measured.value
1  COc1ccc(-n2c([C@H]3CCCN3C)nc3c(C)cc([N+](=O)[O-])cc3c2=O)cc1 [Example 57]    VEEV TC83    51 to 150 nM
2  C=C(C)c1ccc(-c2cc(C#N)cc3c(=O)n(-c4cc(F)c(OC)c(F)c4)c(C4CCCN4)nc23)cc1 (stereo not shown) [Example 172]    VEEV TC83    51 to 150 nM
3  COc1ccc(-n2c(C3C[C@@H](OC)CN3)nc3c(-c4ccc(C)nc4)cc(C#N)cc3c2=O)cc1F (stereo partly shown) [Example 120]    VEEV TC83   151 to 500 nM
4  COc1ccc(-n2c(-c3cnco3)nc3c(-c4ccc(C)nc4)cc(C#N)cc3c2=O)cc1F [Example 198]    VEEV TC83       > 1000 nM
5  COc1ccc(-n2c(-c3ccon3)nc3c(-c4ccc(C)nc4)cc(C#N)cc3c2=O)cc1F [Example 199]    VEEV TC83  501 to 1000 nM
6  COc1ccc(-n2c(C3CCCN3)nc3c(-c4ccc(CO)cc4)cc(C#N)cc3c2=O)cc1F (stereo not shown) [Example 134]    VEEV TC83      1 to 50 nM

Below: the item to evaluate.
# returns recorded EC50 (system: VEEV TC83) for CN[C@H](C)c1nc2ccc([N+](=O)[O-])cc2c(=O)n1-c1ccc(OC)cc1 [Example 207]
51 to 150 nM

---

System: VEEV TC83
protocol text: microbe, parasite or virus in culture
Format: cell-based
condition notes: Venezuelan equine encephalitis virus, Vero 76, 48 h, read-out: VEEV TC83 EC50 nM
recorded endpoint: EC50

Example molecules with recorded EC50:
> print(dat)
                                    molecule  measured.value
 1  COc1ccc(-n2c([C@H]3CCCCN3)nc3ccc([N+](=O)[O-])cc3c2=O)cc1   151 to 500 nM
 2  COc1c(F)cc(-n2c([C@H]3CCCN3)nc3c(-c4ccc(C(F)(F)F)nc4)cc(C#N)cc3c2=O)cc1F      1 to 50 nM
 3  COc1ccc(-n2c([C@H]3Cc4ccccc4N3)nc3c(-c4ccc(C)nc4)cc(C#N)cc3c2=O)cc1F      1 to 50 nM
 4  O=c1c2cc([N+](=O)[O-])ccc2nc(C2CCCN2)n1-c1cccc(F)c1 (stereo not drawn)      1 to 50 nM
 5  COc1ccc(-n2c(C3CCCN3)nc3c(-c4ccc(N5CCOCC5)nc4)cc(C#N)cc3c2=O)cc1F (stereo not drawn)      1 to 50 nM
 6  COc1c(F)cc(-n2c(C3CCCN3)nc3c(-c4ccc(C(C)(C)O)cc4)cc(C#N)cc3c2=O)cc1F (stereo not drawn)    51 to 150 nM
 7  COc1c(F)cc(-n2c(C3CCCN3)nc3c(-c4ccc(C(C)=O)nc4)cc(C#N)cc3c2=O)cc1F (stereo not drawn)      1 to 50 nM
 8  COc1ccc(-n2c([C@@H]3C[C@@H](F)CN3)nc3c(C)cc([N+](=O)[O-])cc3c2=O)cc1       > 1000 nM
 9  COc1ccc(-n2c([C@@H]3CCCN3)nc3c(-c4cccnc4)cc([N+](=O)[O-])cc3c2=O)cc1F      1 to 50 nM
10  Cc1cc(-c2cc(C#N)cc3c(=O)n(-c4cc(F)c(NCC5(CO)COC5)c(F)c4)c(C4CCCN4)nc23)cc(C)n1 (stereo not drawn)  501 to 1000 nM

Need EC50, item COc1ccc(-n2c([C@H]3CCCN3)nc3c(-c4ccncc4)cc([N+](=O)[O-])cc3c2=O)cc1F
1 to 50 nM

Please answer likewise for COc1ccc(-n2c([C@@H]3CCCN3)nc3c(C(F)(F)F)cc(C#N)cc3c2=O)cc1F
51 to 150 nM

Please answer likewise for COc1ccc(-n2c([C@H]3CCCN3)nc3c(-c4cccnc4)cc([N+](=O)[O-])cc3c2=O)cc1F
1 to 50 nM

Please answer likewise for COc1ccc(-n2c([C@H]3CCCN3)nc3c(F)c(F)c(F)cc3c2=O)cc1
501 to 1000 nM

Please answer likewise for COc1ccc(-n2c([C@H]3CCCN3)nc3c(C(F)(F)F)cc(C#N)cc3c2=O)cc1F
1 to 50 nM

---

Tested on: WEEV California
protocol text: microbe, parasite or virus in culture
Assay type: cell-based
condition notes: Western equine encephalitis virus, Vero 76, 48 h, read-out: WEEV California EC50 nM
recorded endpoint: EC50

> print(dat)
                                   compound  measured.value
1  O=c1c2cc([N+](=O)[O-])ccc2nc(C2CCCN2)n1-c1cccc(Cl)c1 (stereo not shown) [Example 39]       > 1000 nM
2  COc1ccc(-n2c([C@H]3Cc4ccccc4N3)nc3c(-c4ccc(C)nc4)cc(C#N)cc3c2=O)cc1F [Example 128]   151 to 500 nM
3  COc1c(F)cc(-n2c(C3C[C@H](F)CN3)nc3c(-c4ccnc(C)c4)cc(C#N)cc3c2=O)cc1F (stereo partly shown) [Example 156]   151 to 500 nM

# returns recorded EC50 (system: WEEV California) for COc1ccc(-n2c(C3CCCN3)nc3c(-c4ccc(S(C)(=O)=O)cc4)cc(C#N)cc3c2=O)cc1F (stereo not shown) [Example 136]
1 to 50 nM

Please answer likewise for Cc1cc(-c2cc(C#N)cc3c(=O)n(-c4cc(F)c(NCC5(CO)COC5)c(F)c4)c(C4CCCN4)nc23)cc(C)n1 (stereo not shown) [Example 164]
501 to 1000 nM

Please answer likewise for COc1ccc(-n2c(C3CCCN3C3CCOCC3)nc3ccc(F)c(F)c3c2=O)cc1 (stereo in doubt) [Example 29]
> 1000 nM

Please answer likewise for COc1ccc(-n2c(C3CCCN3)nc3c(-c4ccc(C#N)nc4)cc(C#N)cc3c2=O)cc1F (stereo not shown) [Example 126]
51 to 150 nM

---

Tested on: WEEV California
protocol text: microbe, parasite or virus in culture
Assay type: cell-based
condition notes: Western equine encephalitis virus, Vero 76, 48 h, read-out: WEEV California EC50 nM
recorded endpoint: EC50

Example molecules with recorded EC50:
> print(dat)
                                   molecule  measured.value
1  COc1ccc(-n2c([C@H]3CCCN3)nc3c(C(F)(F)F)cc(C#N)cc3c2=O)cc1F      1 to 50 nM
2  COc1ccc(-n2c([C@@H]3CCCN3)nc3c(-c4ccncc4)cc(C#N)cc3c2=O)cc1F      1 to 50 nM
3  O=c1c2cc([N+](=O)[O-])ccc2nc([C@@H]2CCCN2)n1-c1ccccc1   151 to 500 nM
4  O=c1c2cc([N+](=O)[O-])ccc2nc(C2CCCN2)n1-c1ccccc1 (stereo not drawn)    51 to 150 nM
5  C=C(C)c1ccc(-c2cc(C#N)cc3c(=O)n(-c4cc(F)c(OC)c(F)c4)c(C4CCCN4)nc23)cc1 (stereo not drawn)    51 to 150 nM

Need EC50, item COc1cc(F)ccc1-n1c([C@H]2CCCN2)nc2ccc([N+](=O)[O-])cc2c1=O
> 1000 nM
